Molecular target: L-lactate dehydrogenase (Plasmodium falciparum (isolate CDC / Honduras)) (UniProt Q27743)
Sequence (Q27743 whole entry, looked up): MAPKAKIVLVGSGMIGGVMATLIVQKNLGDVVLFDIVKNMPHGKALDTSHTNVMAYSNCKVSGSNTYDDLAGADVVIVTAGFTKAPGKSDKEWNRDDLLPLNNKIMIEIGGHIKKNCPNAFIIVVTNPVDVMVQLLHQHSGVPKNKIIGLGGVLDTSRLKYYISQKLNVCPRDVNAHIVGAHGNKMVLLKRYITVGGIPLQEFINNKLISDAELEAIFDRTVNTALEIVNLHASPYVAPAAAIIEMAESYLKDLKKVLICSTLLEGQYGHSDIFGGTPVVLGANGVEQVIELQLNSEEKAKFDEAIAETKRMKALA
Experiment: PfLDH activity inhibition – cell lysate, 3D7 strain, counter-screen for P. falciparum growth inhibition project (AID 2304);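 further: 0% = vehicle and 100% = reference inhibitor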
Details: P. falciparum 3D7 crude extract, LDH APAD/NBT absorbance; at 2 µM; active compounds read high
Each entry below carries its reported inhibition.
Entry rule: numbers only, all in %.

Compound	inhibition (%)
N#CCCN1CCN(Cc2cccc(-c3ccc(-c4nc5ccccc5[nH]4)cc3)c2)CC1	-9

Prompt: Record request: inhibition value, item O=C(Nc1cccc(-c2nn3ccccc3c2-c2ccnc(Nc3cccc(-c4cnco4)c3)n2)c1)C1CCCCC1
Completion: -4

Prompt: What do you have for Cc1ccc(Nc2nc3cc(Nc4ccnc(Nc5cccc(CS(C)(=O)=O)c5)n4)ccc3o2)cc1 ?
Completion: 4

Prompt: What do you have for Cc1nc2nc(N)nc(N)c2c(C)c1Cc1ccc([N+](=O)[O-])cc1 ?
Completion: -1

Prompt: What do you have for O[C@@H](c1ccccc1)[C@@H]1CN(Cc2ccccc2)CC[C@@]1(O)c1ccccc1 ?
Completion: -2
